- Test system: HOP-18
- PROTOCOL NOTES: NCI tumour cell line growth inhibition, 48 h
The source made the active and inactive calls. No stated cut-off is given here; in the data, active = GI50 up to about 1.1 µM and inactive = higher.
QUANTITY MEASURED: GI50

Incoming: What does the record list as GI50 for O=C1[C@@H]2C(c3cccc([N+](=O)[O-])c3)=NO[C@@H]2C(=O)N1c1ccc(Cc2ccc(N3C(=O)[C@H]4C(c5cccc([N+](=O)[O-])c5)=NO[C@H]4C3=O)cc2)cc1 ?
Outgoing: > 100 µM (inactive)

Incoming: Again, but for CC1=C2C(=O)[C@H]3[C@@H](CC=C4C[C@@H](O)CC[C@@]43C)[C@@H]2CC[C@]12O[C@@H]1C[C@H](C)CN[C@H]1[C@H]2C
Outgoing: 17.1 µM (inactive)

Incoming: Again, but for CC(=O)OC1CC[C@@]2(C)C(CC[C@]3(C)C2CC=C2[C@@H]4C(C)[C@H](C)CCC4(C)CCC23C)[C@@]1(C)C(=O)O (stereo partly drawn)
Outgoing: 16.3 µM (inactive)

Incoming: Again, but for CC(=O)NNc1nc(C)c(C(=O)NNC(=O)C(=O)Nc2c(C)cccc2C)s1
Outgoing: 29.2 µM (inactive)

Incoming: Again, but for COC(=O)C1=C(C[S+]([O-])c2ccc([N+](=O)[O-])cc2[N+](=O)[O-])C2C=CC1C2 (stereo not drawn)
Outgoing: 29.4 µM (inactive)

Incoming: Again, but for COc1cc(/C=C/c2ccc(OC)c(OC)c2)oc(=O)c1
Outgoing: 4.88 µM (inactive)

Incoming: Again, but for CCC(C)OC(=O)C1C2CCC(O2)C1C(=O)O (stereo not drawn)
Outgoing: > 100 µM (inactive)

Incoming: Again, but for Cc1ccc(C(=O)NCCN(C)C)c2nc3ccccc3cc12
Outgoing: 1.92 µM (inactive)

Incoming: Again, but for CC(=O)OC(C[C@H](C)[C@@H]1CC[C@]2(C)C3=CCC4C(C)(C)C(=O)CC[C@]4(C)C3CCC12C)C1OC1(C)C (stereo partly drawn)
Outgoing: > 100 µM (inactive)

Incoming: Again, but for C=C(CN(C)C)C(=O)c1ccccc1Cl
Outgoing: 19.5 µM (inactive)

Incoming: Again, but for COc1cc(C=C2C(=O)NC(=O)NC2=O)cc(OC)c1OC
Outgoing: > 100 µM (inactive)

Incoming: Again, but for O=C1c2ccccc2C(=O)c2c(O)c(NCCCNCCO)cc(O)c21
Outgoing: 2.41 µM (inactive)

Incoming: Again, but for CC(=O)NC1=C(Nc2ccc(C)cc2)C(=O)c2ccccc2C1=O
Outgoing: 12.2 µM (inactive)

Incoming: Again, but for CC(C)(O)C(O)COc1c2c(cc3oc(=O)ccc13)OCO2 (stereo not drawn)
Outgoing: > 100 µM (inactive)

Incoming: Again, but for NC1=C(Cl)C(=O)c2ccccc2C1=O
Outgoing: 9.66 µM (inactive)

Incoming: Again, but for O=C(O)CNS(=O)(=O)c1ccc(NC(=O)CI)cc1
Outgoing: 34.3 µM (inactive)

Incoming: Again, but for COc1ccc(C(O)/C(=C/n2ccnc2)c2ccccc2)cc1OC (stereo not drawn)
Outgoing: > 100 µM (inactive)

Incoming: Again, but for CCN1CCCC(NCc2c3ccccc3c(CNC3CCCN(CC)C3)c3ccccc23)C1 (stereo not drawn)
Outgoing: 5.92 µM (inactive)

Incoming: Again, but for O=C1C2CCC(C2)C12CC1(c3ccccc3)C(=O)c3ccccc3N1O2 (stereo not drawn)
Outgoing: > 100 µM (inactive)

Incoming: Again, but for O=[N+]([O-])c1cnn(C2=CNc3ccccc3N=C2)c1
Outgoing: > 100 µM (inactive)

Incoming: Again, but for O=C1CC[C@@H](S(=O)(=O)c2ccccc2)[C@@H](/C=C/c2ccccc2)O1
Outgoing: > 100 µM (inactive)

Incoming: Again, but for CC(C)OCN/C(N)=N\C#N
Outgoing: > 100 µM (inactive)

Incoming: Again, but for O=C(c1cccc2ccccc12)N1CCC(C2CCN(C(=O)c3cccc4ccccc34)CC2)CC1
Outgoing: > 100 µM (inactive)

----------
- Tested on: EKVX
- PROTOCOL NOTES: NCI tumour cell line growth inhibition, 48 h
Activity calls are given as the source filed them. Cut-off read from the data, not from the text of the source: active = GI50 up to about 1.1 µM and inactive = higher.
I'd appreciate it if you could supply GI50 values for the items below.

Incoming: Record lookup: for EKVX, what GI50 belongs to C[C@]12CC[C@@H]3c4ccc(O)cc4CC[C@H]3[C@@H]1CC[C@@H]2OC(=O)CCC1CCCC1 [ESTRADIOL CYPIONATE] ?
Outgoing: 7.45 µM (inactive)

Incoming: Again, but for COc1ccc(Cc2n[nH]c(Nc3ccc(Br)cc3)nc2=O)cc1OC
Outgoing: > 100 µM (inactive)

Incoming: Again, but for COc1cc2c(cc1OCCCC(=O)Nc1cc(C(=O)NCCCN(C)C)n(C)n1)N=CC1CCCN1C2=O (centres undefined)
Outgoing: > 47.4 µM (inactive)

Incoming: Again, but for CCOC(=O)C1=C(C)N2CCCOC2(C)C(C(=O)OC)C1c1cccc([N+](=O)[O-])c1 (centres undefined)
Outgoing: 50 µM (inactive)

Incoming: Again, but for O=C1C2CCC(C2)C12CC1(c3ccccc3)C(=O)c3ccccc3N1O2 (centres undefined)
Outgoing: > 100 µM (inactive)

Incoming: Again, but for CN(C)CCCN1CCc2c([nH]c3ccccc23)C1c1cccnc1 (centres undefined)
Outgoing: > 100 µM (inactive)

Incoming: Again, but for N#CSCc1nc2ccc(Cl)cc2c(-c2ccccc2)[n+]1[O-]
Outgoing: 23.2 µM (inactive)

Incoming: Again, but for NC(=O)c1cc2ccccc2o/c1=N/O
Outgoing: 32.2 µM (inactive)

Incoming: Again, but for O=C1C2C=CC(n3[nH]c(=O)n(Cc4ccccc4)c3=O)CC2C(=O)N1c1ccc(Br)cc1 (centres undefined)
Outgoing: > 100 µM (inactive)

----------
I'd appreciate it if you could supply GI50 values for the items below.
- Test system: HCC 2998
- PROTOCOL NOTES: NCI tumour cell line growth inhibition, 48 h
Calls of active or inactive are those of the source. Cut-off read from the data, not from the text of the source: active = GI50 up to about 1.1 µM and inactive = higher. Non-standard residues stand in square brackets, D forms with d. Residues, ends and D or L forms follow the SMILES beside them. ξ: configuration not given here. ξLac(3-iPr) = CC(C)CC(O)C(=O)O; NMeV = CN[CH](C(=O)O)C(C)C; NMeA = CN[CH](C)C(=O)O; βAla = NCCC(=O)O

Incoming: Record lookup: for HCC 2998, what GI50 belongs to CC(=O)OCC1OC(n2c(Br)nc3c2c(=O)n(C)c(=O)n3C)C(OC(C)=O)C1OC(C)=O (configuration not stated) ?
Outgoing: > 100 µM (inactive)

Incoming: Again, but for Oc1cc(-c2ccc3c(c2)OCO3)nc2cc3c(cc12)OCO3
Outgoing: 31.4 µM (inactive)

Incoming: Again, but for N#CC(C#N)=c1ccc(=C2NCC3CCCN23)cc1 (configuration not stated)
Outgoing: > 100 µM (inactive)

Incoming: Again, but for Cc1ccc(Cc2n[nH]c(=O)n2Nc2ccccc2)cc1
Outgoing: > 100 µM (inactive)

Incoming: Again, but for COc1ccc(C2=NC(CO)[C@H](c3ccccc3)O2)cc1OC (some centres not stated)
Outgoing: > 100 µM (inactive)

Incoming: Again, but for O=C1C2C=CC(n3[nH]c(=O)n(Cc4ccccc4)c3=O)CC2C(=O)N1c1ccc(Br)cc1 (configuration not stated)
Outgoing: > 100 µM (inactive)

Incoming: Again, but for CN(C)CCCN1CCc2c([nH]c3ccccc23)C1c1cccnc1 (configuration not stated)
Outgoing: > 100 µM (inactive)

Incoming: Again, but for C=CC1(CC[C@]2(c3ccc(OC)c(OC)c3)C=[N+]([O-])O[C@H](O[C@@H]3CCCC[C@H]3C(C)(C)c3ccccc3)C2)OCC(C)(C)CO1
Outgoing: 16.1 µM (inactive)

Incoming: Again, but for CCC(C)C1NC(=O)C2CCCN2C(=O)C(CC(C)C)OC(=O)CCNC(=O)C(C)N(C)C(=O)C(C(C)C)N(C)C1=O (configuration not stated) (cyclo([ξLac(3-iPr)]PI[NMeV][NMeA][βAla]); configuration not given here)
Outgoing: 2.13 µM (inactive)

Incoming: Again, but for NCCCN(CCCCN(CCCN)Cc1ccccc1)Cc1ccccc1
Outgoing: 10.8 µM (inactive)

Incoming: Again, but for Nc1csc(-c2scc3c2OCCO3)c1N
Outgoing: 22.4 µM (inactive)

Incoming: Again, but for CN1CCN(C2CC(=O)c3c(Cl)sc(Cl)c32)CC1 (configuration not stated)
Outgoing: 8.87 µM (inactive)

----------
I'd appreciate it if you could supply GI50 values for the items below.
- Tested on: SNB-19
- PROTOCOL NOTES: NCI tumour cell line growth inhibition, 48 h
Activity calls are given as the source filed them. Cut-off read from the data, not from the text of the source: active = GI50 up to about 1.1 µM and inactive = higher. Non-standard residues stand in square brackets, D forms with d. Residues, ends and D or L forms follow the SMILES beside them. ξ: configuration not given here. ξLac(3-iPr) = CC(C)CC(O)C(=O)O; NMeV = CN[CH](C(=O)O)C(C)C; NMeA = CN[CH](C)C(=O)O; βAla = NCCC(=O)O

Incoming: What does the record list as GI50 for CCCCN1CN2C(=O)C(C(=O)OCC)C(=O)c3sc4nc(SC)nc1c4c32 (centres undefined) ?
Outgoing: 19 µM (inactive)

Incoming: Again, but for COc1ccc(C(O)/C(=C/n2ccnc2)c2ccccc2)cc1OC (centres undefined)
Outgoing: > 100 µM (inactive)

Incoming: Again, but for CCOC(=O)Nn1cnnc1Cc1ccccc1
Outgoing: > 100 µM (inactive)

Incoming: Again, but for CC1=C(OC2OC(CO)C(O)C(O)C2O)C(=O)C[C@H]2C1=CC[C@@H]1[C@@]2(C)C(=O)C[C@]2(C)[C@@H]([C@@](C)(O)C(=O)CCC(C)(C)O)[C@H](O)C[C@@]12C (some centres undefined)
Outgoing: > 100 µM (inactive)

Incoming: Again, but for CCC(C)C1NC(=O)C2CCCN2C(=O)C(CC(C)C)OC(=O)CCNC(=O)C(C)N(C)C(=O)C(C(C)C)N(C)C1=O (centres undefined) (cyclo([ξLac(3-iPr)]PI[NMeV][NMeA][βAla]); configuration not given here)
Outgoing: 49 µM (inactive)

Incoming: Again, but for Nc1nc(Sc2ccc([N+](=O)[O-])cn2)c2nc[nH]c2n1
Outgoing: 23.8 µM (inactive)

Incoming: Again, but for Nc1csc(-c2scc3c2OCCO3)c1N
Outgoing: 32.7 µM (inactive)

Incoming: Again, but for O=C(Cn1c2c(c3ccccc31)CCCC2)N1CCOCC1
Outgoing: > 100 µM (inactive)

Incoming: Again, but for CC(=O)OC1CC[C@@]2(C)C(CC[C@]3(C)C2CC=C2[C@@H]4C(C)[C@H](C)CCC4(C)CCC23C)[C@@]1(C)C(=O)O (some centres undefined)
Outgoing: 22.9 µM (inactive)
